Tested on: 266295-075-R-J1-PDC spheroid viability
Test: Anticancer human tumor 266295-075-R-J1-PDC patient-derived head and neck squamous carcinoma cell line growth inhibition [POLQ]
Conditions: second compound 0.1 µM; first compound 0.316 µM; hits give low values; spheroids with HUVEC and MSC
Method: Multicellular complex tumor spheroid response to Polymerase (POL) inhibitors (novobiocin, ART-558, RP6685) in combination with a variety of drugs and investigational agents in selected tumor cell lines The POL inhibitors (novobiocin, ART-558, and RP6685) were evaluated both individually and in combination with standard of care and investigational anticancer small molecules within a complex spheroid model of solid tumors. . […]
measureName: viability, T/C (%)
Numbers only, in %.

# compound, targetDesc, measureName, unitOfMeasurement, assayValue
records = [
    ("CC1COCCN1c1cc(-c2ccnn2C)c2ccnc(-c3ccn[nH]3)c2n1 (stereo unspecified) + Cc1cccc(N(C)C(=O)C2C(O)CCN2c2nc(C)cc(C(F)(F)F)c2C#N)c1", "266295-075-R-J1-PDC spheroid viability", "viability, T/C", "%", 60.9),
    ("CC(C)n1c(=O)n(C)c2cnc3cc(F)c(-c4ccc(OCCCN5CCCCC5)nc4)cc3c21 + Nc1ccc(C#CCN(C(=O)Cc2ncc(C(F)(F)F)cc2C(F)(F)F)c2ccc(F)cc2)nn1", "266295-075-R-J1-PDC spheroid viability", "viability, T/C", "%", 88),
    ("CC1COCCN1c1cc(C2(S(C)(=N)=O)CC2)nc(-c2ccnc3[nH]ccc23)n1 (stereo unspecified) + Nc1ccc(C#CCN(C(=O)Cc2ncc(C(F)(F)F)cc2C(F)(F)F)c2ccc(F)cc2)nn1", "266295-075-R-J1-PDC spheroid viability", "viability, T/C", "%", 92),
    ("O=C(c1cc(Cc2n[nH]c(=O)c3ccccc23)ccc1F)N1CCN(C(=O)C2CC2)CC1 + COC1C(OC(N)=O)C(O)C(Oc2ccc3c(O)c(NC(=O)c4ccc(O)c(CC=C(C)C)c4)c(=O)oc3c2C)OC1(C)C", "266295-075-R-J1-PDC spheroid viability", "viability, T/C", "%", 89.9),
    ("CNCc1ccc(-c2[nH]c3cc(F)cc4c3c2CCNC4=O)cc1 + Nc1ccc(C#CCN(C(=O)Cc2ncc(C(F)(F)F)cc2C(F)(F)F)c2ccc(F)cc2)nn1", "266295-075-R-J1-PDC spheroid viability", "viability, T/C", "%", 95.6),
]

Report viability, T/C for each item below.
1. CCc1c2c(nc3ccc(O)cc13)-c1cc3c(c(=O)n1C2)COC(=O)[C@]3(O)CC + COC1C(OC(N)=O)C(O)C(Oc2ccc3c(O)c(NC(=O)c4ccc(O)c(CC=C(C)C)c4)c(=O)oc3c2C)OC1(C)C
2. O=C(c1cc(Cc2n[nH]c(=O)c3ccccc23)ccc1F)N1CCN(C(=O)C2CC2)CC1 + Cc1cccc(N(C)C(=O)C2C(O)CCN2c2nc(C)cc(C(F)(F)F)c2C#N)c1
3. O=c1[nH]cc(F)c(=O)[nH]1 + Nc1ccc(C#CCN(C(=O)Cc2ncc(C(F)(F)F)cc2C(F)(F)F)c2ccc(F)cc2)nn1
4. CCc1cc2c(N3CCc4c(cc(Cn5ccnc5)cc4-c4cn(C)nc4C(F)(F)F)C3=O)cc(C)nc2c(OC)n1 + Nc1ccc(C#CCN(C(=O)Cc2ncc(C(F)(F)F)cc2C(F)(F)F)c2ccc(F)cc2)nn1
5. C#Cc1c(F)ccc2cc(O)cc(-c3ncc4c(N5CC6CCC(C5)N6)nc(OCC56CCCN5CC(F)C6)nc4c3F)c12 (stereo unspecified) + Nc1ccc(C#CCN(C(=O)Cc2ncc(C(F)(F)F)cc2C(F)(F)F)c2ccc(F)cc2)nn1

1: 108; 2: 91.4; 3: 84.7; 4: 105; 5: 75.2

The value of viability, T/C measured for the compound Nc1ccn(C2OC(CO)C(O)C2(F)F)c(=O)n1 (stereo unspecified) + COC1C(OC(N)=O)C(O)C(Oc2ccc3c(O)c(NC(=O)c4ccc(O)c(CC=C(C)C)c4)c(=O)oc3c2C)OC1(C)C turned out to be 82.6

###

Give measured viability, T/C for each item. Keep answers brief.
system: 266295-075-R-J1-PDC spheroid viability; experiment: Anticancer human tumor 266295-075-R-J1-PDC cell line growth inhibition [POLQ]; settings: second compound 0.0316 µM; first compound 10 µM; hits give low values; spheroids with HUVEC and MSC;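 further: spheroids exposed to compounds for seven days before readout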
Answers are plain numbers, in %.

# compound, assayValue
measured = [
    ("CC1COCCN1c1cc(C2(S(C)(=N)=O)CC2)nc(-c2ccnc3[nH]ccc23)n1 (stereo not drawn) + Cc1cccc(N(C)C(=O)C2C(O)CCN2c2nc(C)cc(C(F)(F)F)c2C#N)c1", 57),
    ("Nc1ccn(C2OC(CO)C(O)C2(F)F)c(=O)n1 (stereo not drawn) + Nc1ccc(C#CCN(C(=O)Cc2ncc(C(F)(F)F)cc2C(F)(F)F)c2ccc(F)cc2)nn1", 85.3),
]

Please look at the following compound next.
get_value(item= O=C(Nc1ccc(O)c(NS(=O)(=O)c2ccc(F)cc2)c1)c1ccc(-c2ccccc2)cc1 + Cc1cccc(N(C)C(=O)C2C(O)CCN2c2nc(C)cc(C(F)(F)F)c2C#N)c1 , readout=viability, T/C) returns 103

###

Would you mind telling me the reported viability, T/C of each entry?
tested on: 266295-075-R-J1-PDC spheroid viability; test: Anticancer human tumor 266295-075-R-J1-PDC cell line growth inhibition [POLQ]; settings: second compound 0.1 µM; first compound 10 µM; hits give low values; spheroids with HUVEC and MSC;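 further: spheroids exposed to compounds for seven days before readout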
Give bare numbers, in %.

# molecule, viability, T/C [%]
data = [
    ("O=c1[nH]cc(F)c(=O)[nH]1 + Nc1ccc(C#CCN(C(=O)Cc2ncc(C(F)(F)F)cc2C(F)(F)F)c2ccc(F)cc2)nn1", 80.2),
    ("C#Cc1c(F)ccc2cc(O)cc(-c3ncc4c(N5CC6CCC(C5)N6)nc(OCC56CCCN5CC(F)C6)nc4c3F)c12 (stereo not given) + COC1C(OC(N)=O)C(O)C(Oc2ccc3c(O)c(NC(=O)c4ccc(O)c(CC=C(C)C)c4)c(=O)oc3c2C)OC1(C)C", 54.2),
    ("COc1cccc2c1C(=O)c1c(O)c3c(c(O)c1C2=O)CC(O)(C(=O)CO)CC3OC1CC(N)C(O)C(C)O1 (stereo not given) + Cc1cccc(N(C)C(=O)C2C(O)CCN2c2nc(C)cc(C(F)(F)F)c2C#N)c1", 1.95),
    ("CCc1cc2c(N3CCc4c(cc(Cn5ccnc5)cc4-c4cn(C)nc4C(F)(F)F)C3=O)cc(C)nc2c(OC)n1 + COC1C(OC(N)=O)C(O)C(Oc2ccc3c(O)c(NC(=O)c4ccc(O)c(CC=C(C)C)c4)c(=O)oc3c2C)OC1(C)C", 157),
    ("CC(C)n1c(=O)n(C)c2cnc3cc(F)c(-c4ccc(OCCCN5CCCCC5)nc4)cc3c21 + COC1C(OC(N)=O)C(O)C(Oc2ccc3c(O)c(NC(=O)c4ccc(O)c(CC=C(C)C)c4)c(=O)oc3c2C)OC1(C)C", 74.5),
]

For each of the items listed, what is its viability, T/C?
1. C#Cc1c(F)ccc2cc(O)cc(-c3ncc4c(N5CC6CCC(C5)N6)nc(OCC56CCCN5CC(F)C6)nc4c3F)c12 (stereo not given) + Cc1cccc(N(C)C(=O)C2C(O)CCN2c2nc(C)cc(C(F)(F)F)c2C#N)c1
2. CC1COCCN1c1cc(C2(S(C)(=N)=O)CC2)nc(-c2ccnc3[nH]ccc23)n1 (stereo not given) + Nc1ccc(C#CCN(C(=O)Cc2ncc(C(F)(F)F)cc2C(F)(F)F)c2ccc(F)cc2)nn1
3. CC1COCCN1c1cc(C2(S(C)(=N)=O)CC2)nc(-c2ccnc3[nH]ccc23)n1 (stereo not given) + Cc1cccc(N(C)C(=O)C2C(O)CCN2c2nc(C)cc(C(F)(F)F)c2C#N)c1
4. CCCS(=O)(=O)Nc1ccc(F)c(C(=O)c2c[nH]c3ncc(-c4ccc(Cl)cc4)cc23)c1F + Cc1cccc(N(C)C(=O)C2C(O)CCN2c2nc(C)cc(C(F)(F)F)c2C#N)c1
5. COc1cccc2c1C(=O)c1c(O)c3c(c(O)c1C2=O)CC(O)(C(=O)CO)CC3OC1CC(N)C(O)C(C)O1 (stereo not given) + COC1C(OC(N)=O)C(O)C(Oc2ccc3c(O)c(NC(=O)c4ccc(O)c(CC=C(C)C)c4)c(=O)oc3c2C)OC1(C)C

[55.7, 57.2, 55.1, 142, 2.16]

###

test system: 266295-075-R-J1-PDC spheroid viability; experiment: Anticancer human tumor 266295-075-R-J1-PDC cell line growth inhibition [POLQ]; conditions: second compound 0.1 µM; first compound 10 µM; hits give low values; spheroids with HUVEC and MSC;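 further: spheroids exposed to compounds for seven days before readout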
Hi there, I'd appreciate the recorded viability, T/C for every entry that follows.
Answers are plain numbers, in %.

Example results:
# compound, unitOfMeasurement, viability, T/C
rows = [
    ("CC1COCCN1c1cc(C2(O)CC3CCC(C2)O3)c2cnn(-c3ccn[nH]3)c2n1 (stereo not drawn) + COC1C(OC(N)=O)C(O)C(Oc2ccc3c(O)c(NC(=O)c4ccc(O)c(CC=C(C)C)c4)c(=O)oc3c2C)OC1(C)C", "%", 26.8),
    ("O=C(c1cc(Cc2n[nH]c(=O)c3ccccc23)ccc1F)N1CCN(C(=O)C2CC2)CC1 + COC1C(OC(N)=O)C(O)C(Oc2ccc3c(O)c(NC(=O)c4ccc(O)c(CC=C(C)C)c4)c(=O)oc3c2C)OC1(C)C", "%", 84.6),
]

Kindly note the recorded viability, T/C for CC1COCCN1c1cc(-c2ccnn2C)c2ccnc(-c3ccn[nH]3)c2n1 (stereo not drawn) + Nc1ccc(C#CCN(C(=O)Cc2ncc(C(F)(F)F)cc2C(F)(F)F)c2ccc(F)cc2)nn1 , which is 34.3

Reference source: PubChem BioAssay AID1963853
